- ASSAY_PROCEDURE: Pharmacokinetics assay in mice
- Type: in vivo
- ASSAY_CONTEXT: female, mouse, in vivo, po; C57 mice, intragastric, 2 mg/kg; read-out: Apparent distribution volume Vz/F
MEASURED_QUANTITY: Vd/F (L/kg)
Provide the reading as a plain figure in L/kg.

What value of measured Vd/F is listed for [2H]C([2H])([2H])C([2H])([2H])S(=O)(=O)c1ccc([C@H](CO)NC(=O)c2ccc3c(c2)cc(Cc2ccc(Cl)cc2C(F)(F)F)n3CCF)cc1 (single isomer, unassigned) ?
0.575

----------
- ASSAY_PROCEDURE: Pharmacokinetics assay in mice
- Format: in vivo
- ASSAY_CONTEXT: female, mouse, plasma, po; C57 mice, intragastric, 2 mg/kg; read-out: Plasma concentration Cmax
MEASURED_QUANTITY: Cmax (ng/mL)
Provide the reading as a plain figure in ng/mL.

What value of measured Cmax is listed for [2H]C([2H])(F)Cn1c(Cc2ccc(Cl)cc2C(F)(F)F)cc2cc(C(=O)N[C@@H](CO)c3ccc(S(=O)(=O)CC)cc3)ccc21 (single isomer, unassigned) [Example 1] ?
3710
